Hey, just so you know, these numbers are from the RNAGym collection of RNA variant scans (doi:10.7554/elife.90254).

B1: OR4K15 (parent)
chain: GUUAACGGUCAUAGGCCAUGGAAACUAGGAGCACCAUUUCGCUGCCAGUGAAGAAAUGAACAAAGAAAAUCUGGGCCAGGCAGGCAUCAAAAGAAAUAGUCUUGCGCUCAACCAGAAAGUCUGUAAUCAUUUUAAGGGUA

variants of: B1; assay: self-cleavage, relative activity (ratio to wild type); higher = more cleavage; in vitro, sequencing; the parent is a self-cleaving ribozyme
measuredQuantity: self-cleavage

sequenceChain: GUUAACGGUCACAGGCCAUGGAAACUAGGAGCACCAUUUCGCUGCCGGUGAAGAAAUGAACAAAGAAAAUCUGGGCCAGGCAGGCAUCAAAAGAAAUAGUCUUGCGCUCAACCAGAAAGUCUGUAAUCAUUUUAAGGGUA [U12C A47G]
self-cleavage: 1.3
//
sequenceChain: GUUAACGGUCAUAGGCCAUGGAAACUAGGAGCACCAUUCCGCUGCCAGUGAAGAAAUGAACAAAGAAAAUCUGGGCCAGGCAGGCAUCAAAGGAAAUAGUCUUGCGCUCAACCAGAAAGUCUGUAAUCAUUUUAAGGGUA [U39C A92G]
self-cleavage: 1.3
//
sequenceChain: GUUAACGGUCAUAGGCCAUGGAAACUAGGAGCACCAUUUCGCUGCCAGUGAAGAAAUGAACAAAGAAAAUCUGGGCCAGGCAGGCAUCAAAAGCAAUAGUCUUGCGCUCAACCAGAAAGUCUGUAAUCAUCUUAAGGGUA [A94C U131C]
self-cleavage: 0.24
//
sequenceChain: GUUAACGGUCAUAGGCCUUGGAAACUAGGAGCACCAUUUCGCUGCCAGUGAAGAAAUGAGCAAAGAAAAUCUGGGCCAGGCAGGCAUCAAAAGAAAUAGUCUUGCGCUCAACCAGAAAGUCUGUAAUCAUUUUAAGGGUA [A18U A60G]
self-cleavage: 0.68
//
sequenceChain: GUUAACGGUCAUAGGCCAUGGAAACUAGGAGCACCAUUUCGCUGCCAGUGAAGAAAUGAACAUAGAAAAUCUGGGCCAGGCAGGCAUCAAAAGAAUUAGUCUUGCGCUCAACCAGAAAGUCUGUAAUCAUUUUAAGGGUA [A63U A96U]
self-cleavage: 2.14

Ask: Assign self-cleavage to the following record: GUUAACGGUCAUAGGCCAUGGAAACUUGGAGCACCAUUUCGCUGCCAGUGAAGAAAUGAACAAAGAAAAUCUGGGCCAGGCAAGCAUCAAAAGAAAUAGUCUUGCGCUCAACCAGAAAGUCUGUAAUCAUUUUAAGGGUA [A27U G83A]
Result: 1.31

Ask: Assign self-cleavage to the following record: GUUAACGGUCAUAGGCCAUGGAAACUAGGAGCACCAUUUCGCUGCCGGUGGAGAAAUGAACAAAGAAAAUCUGGGCCAGGCAGGCAUCAAAAGAAAUAGUCUUGCGCUCAACCAGAAAGUCUGUAAUCAUUUUAAGGGUA [A47G A51G]
Result: 0.9

Ask: Assign self-cleavage to the following record: GUUAGCGGUCAUAGGCCAUGGAAACUAGGAGCACCAUUUCGCUGCCAGUGAAGAAAUGAACAAAGAAAAUCUGGGCCAGGCAGGCAUCAAAAGAAAUAGUCUUGCGCUCAACCAGAAAGUCUGUGAUCAUUUUAAGGGUA [A5G A125G]
Result: 0.42

Ask: Assign self-cleavage to the following record: GUUAACGGUCAUAGGCCAUGGAAACUAGGAGCACCAUUUCGCUGCCAGUGAAGGAAUGAACAAAGAAAAUCUGGGCCAGGCAGGCAUCAAAAGAAAUAGUCUUGCGCUCAACCAGAAAGUCUGUAAUCAUUAUAAGGGUA [A54G U132A]
Result: 1.73

Ask: Assign self-cleavage to the following record: GUUAACGGACAUAGGCCAUGGAAACUAGGAGCACCAUUUCGCUGCCAGUGAAGAAAUGAACAAAGAUAAUCUGGGCCAGGCAGGCAUCAAAAGAAAUAGUCUUGCGCUCAACCAGAAAGUCUGUAAUCAUUUUAAGGGUA [U9A A67U]
Result: 0.67

Ask: Assign self-cleavage to the following record: GUUAACGGUCAUAGGCCAUGGAAACUAGGAGCACCAUUUCGCUGCCAGUGAAGAAAUGAACAAAGAAAAUCUGGGCCAGGCAGGCAUCAAAAGAAAUAGUCUUGCGCUCAACCAGAAAGUCUGUAAUCAUUUUGGGGGUA [A134G A135G]
Result: 1.25

Ask: Assign self-cleavage to the following record: GUCAACGGUCAUAGGCCAUGGAAACUAGGAGCACCAUUUCGCUGCCAGUGAAGAAAUGAACAAAGAAAAUCUGGGCCAGGCAGGCAUCAAAAGAGAUAGUCUUGCGCUCAACCAGAAAGUCUGUAAUCAUUUUAAGGGUA [U3C A95G]
Result: 1.02

Ask: Assign self-cleavage to the following record: GUUAACGGUCAAAGGCCAUGGAAACUAGGAGCACCAUUUCGCUGCCAGUGAAGAAAUGAACAUAGAAAAUCUGGGCCAGGCAGGCAUCAAAAGAAAUAGUCUUGCGCUCAACCAGAAAGUCUGUAAUCAUUUUAAGGGUA [U12A A63U]
Result: 1.88

Ask: Assign self-cleavage to the following record: GUUAACGGUCAUAGGCCAUGGAAACUAGGAGCACCAUUUCGCUGCCAGUGAAGAAAUGAACAAAGAAAAUCUGGGCCAGGCAGGCAUCAAAAGAAUUAGUCUUGCGCUCAACCAGAAAGUCUGUAAUCAUUUUAUGGGUA [A96U A135U]
Result: 0.78

Ask: Assign self-cleavage to the following record: GUUAACGGUCAUAGGCCAUGGAAACUAGGAGCACCAUUCCGCUGCCAGUGAAGAAAUGAACAAAGAAAAUCUGGGCCAGGCAGGCAUCAGAAGAAAUAGUCUUGCGCUCAACCAGAAAGUCUGUAAUCAUUUUAAGGGUA [U39C A90G]
Result: 0.84
